measurement_target: SpCyk3
assay_summary: SPOT peptide array binding signal intensity (averaged, normalized) (arbitrary units (background-subtracted, floor 0; scale differs between SH3 domains)); higher = stronger binding of the SH3 domain to the peptide
For each of the binders below, state its SPOT peptide array binding signal intensity.

Data request: Output measured SPOT peptide array binding signal intensity for this item: VPKEPAPAPPPEPDM
Data returned: ≤ 0

Data request: Return SPOT peptide array binding signal intensity for the following binder: LKQRFFLMFPKSIIW
Data returned: 9

Data request: Input IKKRNKIRLPSGSPE , output reported SPOT peptide array binding signal intensity.
Data returned: 6.5

Data request: Fill in SPOT peptide array binding signal intensity for record TPEIPPPLPPKIMVH
Data returned: ≤ 0

Data request: Answer with the recorded SPOT peptide array binding signal intensity for the binder listed here: KTITLEVESSDTIDN
Data returned: ≤ 0

Data request: For the binder YSRKKLPVVLSKMTL , give its reported SPOT peptide array binding signal intensity.
Data returned: 4

Data request: Identify measured SPOT peptide array binding signal intensity associated with KRRTSLFPWLHKPGI
Data returned: 3

Data request: Please supply the value of reported SPOT peptide array binding signal intensity for the item HAPPLPPTAPPPPSL
Data returned: ≤ 0

Data request: Output measured SPOT peptide array binding signal intensity for this item: WTQRRGPLVVYAEDN
Data returned: 7

Data request: Please report SPOT peptide array binding signal intensity for the following binder: AAHKTKPSIPPKKVE
Data returned: ≤ 0

Data request: In one line, give reported SPOT peptide array binding signal intensity of the entry VNFRRIPTGPDSPPT .
Data returned: ≤ 0

Data request: Return SPOT peptide array binding signal intensity (reported value) for this binder: MFLISPPASPPPEFD
Data returned: 4

Data request: Return value of SPOT peptide array binding signal intensity for input ANNQGPPNLPARDKS , no commentary.
Data returned: ≤ 0

Data request: Specify reported SPOT peptide array binding signal intensity for the binder shown: PPPPPPPPPPPLPQS
Data returned: 1

Data request: For the binder AATTSTPPLPRRRAT , report SPOT peptide array binding signal intensity.
Data returned: 9

Data request: Tell me measured SPOT peptide array binding signal intensity for PPIPIVPSSPAPPLP please.
Data returned: ≤ 0

Data request: Input DKKTKPTPPPKPSHL , output reported SPOT peptide array binding signal intensity.
Data returned: ≤ 0

Data request: Please give the documented SPOT peptide array binding signal intensity of DFTLPPPPPPPGLDE
Data returned: ≤ 0

Data request: For SHRLWLYAAPKRPKT , write its SPOT peptide array binding signal intensity.
Data returned: 3

Data request: Identify measured SPOT peptide array binding signal intensity corresponding to DDEDVPPQLPTRTKS
Data returned: ≤ 0

Data request: Supply reported SPOT peptide array binding signal intensity belonging to this binder: ERPKRRAPPPVPKKP
Data returned: 1

Data request: Consider the binder STKKPRPPVKSKPKH . State its measured SPOT peptide array binding signal intensity.
Data returned: ≤ 0

Data request: Hello, please tell me recorded SPOT peptide array binding signal intensity for this one: AHFQPQRTAPKPPIS
Data returned: ≤ 0

Source of measurements: the supplement of paper PMC4466140
